Values compiled from PubChem BioAssay (NCI).

System: SF-539 CNS
Experiment: NCI-60 one-dose screen, 48 h (100 = growth as untreated, 0 = no growth, -100 = all killed)
Conditions: 10 µM unless noted
Experimental: Cells are grown in 96 well plates and exposed to the test compound for 48 hours. Compounds are tested at a single concentration, which is 10^-5 M for most compounds. The reported endpoint is percent growth (GI% or GIPRCNT), where numbers from 0 - 100% represent growth inhibition, and numbers from -100% - 0 represent cell death. For example, a value of 40 represents 60% growth inhibition. A value of 0 means no net growth occurred over the course of the experiment. […]
About 83,000 compounds went through this panel and 20% of them were active in at least one assay; those are over-represented in the sample as a whole.
Threshold check on growth: at or above -10% gives y, strictly below gives n.

1. CC[C@@]1(O)C(=O)OCc2c1cc1n(c2=O)Cc2cc3ccccc3nc2-1 ... n
2. CC[n+]1c(-c2ccccc2)c2cc(N)ccc2c2ccc(N)cc21 ... n
3. NCCc1ccc(OCc2ccccc2)c(OCc2ccccc2)c1 ... y
4. CC[C@@]1(O)C[C@H](OC2CC(N(C)C)C(OC3CC(O)C(OC4CCC(=O)C(C)O4)C(C)O3)C(C)O2)c2c(cc3c(c2O)C(=O)c2c(O)ccc(O)c2C3=O)[C@H]1C(=O)OC (some centres undefined) ... y
5. CCC(=O)OC1CCn2c1nc1c2C(=O)C(C)=C(N2CC2)C1=O (centres undefined) ... n
6. CC[C@](O)(C(=O)O)c1cc2n(c(=O)c1CO)Cc1cc3ccccc3nc1-2 ... n
7. COC1=C(C)C(=O)C2=C(C1=O)C(CO)N1C(C#N)C3CC4C(C1C2N1CCOC41)N3C (centres undefined) ... n
8. Cc1ccc(C(=O)OC(C(=O)O)C(OC(=O)c2ccc(C)cc2)C(=O)O)cc1 (centres undefined) (tested in a mixture with another compound) ... y
9. CC1=C2C(=O)[C@H]3[C@@H](CC=C4C[C@@H](O)CC[C@@]43C)[C@@H]2CC[C@]12O[C@@H]1C[C@H](C)CN[C@H]1[C@H]2C ... y

* * *

System: RPMI-8226 leukemia
Test: NCI-60 one-dose screen, 48 h (100 = growth as untreated, 0 = no growth, -100 = all killed)
Conditions: 10 µM unless noted
Description: Growth inhibition of the RPMI-8226 human tumor cell line is measured as a screen for anti-cancer activity. Cells are grown in 96 well plates and exposed to the test compound for 48 hours. Compounds are tested at a single concentration, which is 10^-5 M for most compounds. The reported endpoint is percent growth (GI% or GIPRCNT), where numbers from 0 - 100% represent growth inhibition, and numbers from -100% - 0 represent cell death. For example, a value of 40 represents 60% growth inhibition. […]
Compounds without any hit were thinned out: in the full panel of roughly 83,000, 20% have a hit. The source made the active and inactive calls. How the source made its calls: active means growth percent below 10; inactive means the rest.
Measured growth of individual entries
reportedProperty: growth

1) NCCc1ccc(OCc2ccccc2)c(OCc2ccccc2)c1 ... 69.7% (inactive)
2) CCCCCCCCCCCC1CCCC(C)N1 (stereo not drawn) ... -34.7% (active)
3) CC[C@@]1(O)C[C@H](OC2CC(N(C)C)C(O)C(C)O2)c2c(O)c3c(c(O)c2[C@H]1OC1CC(N(C)C)C(O)C(C)O1)C(=O)c1cccc(O)c1C3=O (stereo partly drawn) ... -50.6% (active)
4) CC[C@@]1(O)C(=O)OCc2c1cc1n(c2=O)Cc2cc3ccccc3nc2-1 ... -39.7% (active)
5) C[C@H]1CCC/C=C/[C@@H]2C[C@H](O)C[C@H]2[C@H](O)/C=C/C(=O)O1 ... -17.9% (active)
6) Cc1c(N)nc([C@H](CC(N)=O)NC[C@H](N)C(N)=O)nc1C(=O)N[C@H](C(=O)N[C@H](C)[C@@H](O)[C@H](C)C(=O)N[C@H](C(=O)NCCc1nc(-c2nc(C(=O)NCCC[S+](C)C)cs2)cs1)[C@@H](C)O)C(OC1OC(CO)C(O)C(O)C1OC1OC(CO)C(O)C(OC(N)=O)C1O)c1cnc[nH]1 (stereo partly drawn) ... 76.4% [2.5 µM] (inactive)
7) Oc1cc[c]([Hg][Cl])cc1 ... 91.2% (inactive)
8) CCC(=O)OC1CCn2c1nc1c2C(=O)C(C)=C(N2CC2)C1=O (stereo not drawn) ... 2.94% (active)

* * *

system: NCI-H322M lung; test: NCI-60 one-dose screen, 48 h; details: 10 µM unless noted
The panel holds about 83,000 compounds, 20% with a hit somewhere; the sample as a whole holds those more often. Calls of active or inactive are those of the source. Rule for the calls: active = growth percent below 10; inactive = the rest.
Possible outcomes: active, inactive

1) Cc1ccc(C(=O)OC(C(=O)O)C(OC(=O)c2ccc(C)cc2)C(=O)O)cc1 (stereo not drawn) (tested in a mixture with another compound) ... inactive
2) CC1=C(CO)C2=C(C)C3(CC3)[C@@](C)(O)C(=O)C2=C1 ... active
3) CO[C@H](/C(C)=C/C=C/C(C)=C/c1coc(C)n1)[C@H](C)[C@H]1C[C@@H](O)[C@@]2(C)O[C@H]2/C=C/[C@@H](C)[C@@H]2C[C@@H](CC(=O)O2)C[C@H]2O[C@@H]2C(=O)O1 ... inactive
4) CC1=C2C(=O)[C@H]3[C@@H](CC=C4C[C@@H](O)CC[C@@]43C)[C@@H]2CC[C@]12O[C@@H]1C[C@H](C)CN[C@H]1[C@H]2C ... inactive
5) CC[C@](O)(C(=O)O)c1cc2n(c(=O)c1CO)Cc1cc3ccccc3nc1-2 ... active
6) CC[C@@]1(O)C[C@H](OC2CC(N(C)C)C(O)C(C)O2)c2c(O)c3c(c(O)c2[C@H]1OC1CC(N(C)C)C(O)C(C)O1)C(=O)c1cccc(O)c1C3=O (stereo partly drawn) ... active
7) CCCCCCCCCCCC1CCCC(C)N1 (stereo not drawn) ... inactive
8) CN1CCN(c2ccc([N+](=O)[O-])c3no[n+]([O-])c23)CC1 ... active
9) NCCc1ccc(OCc2ccccc2)c(OCc2ccccc2)c1 ... inactive
10) C[C@]12CC[C@H](O)CC1=CC[C@@H]1[C@@H]2CC[C@]2(C)C(=O)CC[C@@H]12 ... inactive
11) CCC1(O)CC(OC2CC(N(C)C)C(OC3CC4OC5CC(=O)C(C)OC5OC4C(C)O3)C(C)O2)c2c(cc3c(c2O)C(=O)c2c(O)ccc(O)c2C3=O)C1C(=O)OC (stereo not drawn) ... active
12) COC1CC(CC2CCC(C)C(C(C)C(=O)O)O2)OC2(OC(C)(C3CCC(C)(C4OC(C5OC(O)(CO)C(C)CC5C)CC4C)O3)CC2C)C1C (stereo not drawn) ... active
13) CCC(=O)OC1CCn2c1nc1c2C(=O)C(C)=C(N2CC2)C1=O (stereo not drawn) ... active

* * *

system: NCI-H522 lung; assay: NCI-60 one-dose screen, 48 h; details: 10 µM unless noted
Compounds without any hit were thinned out: in the full panel of roughly 83,000, 20% have a hit. Active and inactive are the calls of the source. How the source made its calls: active means growth percent below 10; inactive means the rest.
Possible outcomes: active, inactive

1) CC[n+]1c(-c2ccccc2)c2cc(N)ccc2c2ccc(N)cc21 ... active
2) C[C@]12CC[C@H](O)CC1=CC[C@@H]1[C@@H]2CC[C@]2(C)C(=O)CC[C@@H]12 ... inactive
3) O=C1c2ccccc2C(=O)C(Cl)C1Cl (stereo not given) ... active
4) CC[C@](O)(C(=O)O)c1cc2n(c(=O)c1CO)Cc1cc3ccccc3nc1-2 ... active
5) CC1=C(CO)C2=C(C)C3(CC3)[C@@](C)(O)C(=O)C2=C1 ... active

* * *

tested on: A549/ATCC NSCLC; assay: NCI-60 one-dose screen, 48 h; settings: 10 µM unless noted
The panel holds about 83,000 compounds, 20% with a hit somewhere; the sample as a whole holds those more often. Calls of active or inactive are those of the source. Rule for the calls: active = growth percent below 10; inactive = the rest.
Possible outcomes: class 1 (active), class 0 (inactive)

1. CC[C@@]1(O)C[C@H](OC2CC(N(C)C)C(O)C(C)O2)c2c(O)c3c(c(O)c2[C@H]1OC1CC(N(C)C)C(O)C(C)O1)C(=O)c1cccc(O)c1C3=O (stereo partly specified) ... class 1
2. Cc1c(N)nc([C@H](CC(N)=O)NC[C@H](N)C(N)=O)nc1C(=O)N[C@H](C(=O)N[C@H](C)[C@@H](O)[C@H](C)C(=O)N[C@H](C(=O)NCCc1nc(-c2nc(C(=O)NCCC[S+](C)C)cs2)cs1)[C@@H](C)O)C(OC1OC(CO)C(O)C(O)C1OC1OC(CO)C(O)C(OC(N)=O)C1O)c1cnc[nH]1 (stereo partly specified) ... class 0
3. CC1=C2C(=O)[C@H]3[C@@H](CC=C4C[C@@H](O)CC[C@@]43C)[C@@H]2CC[C@]12O[C@@H]1C[C@H](C)CN[C@H]1[C@H]2C ... class 0
4. CC[C@@]1(O)C(=O)OCc2c1cc1n(c2=O)Cc2cc3ccccc3nc2-1 ... class 1
5. CN1CCN(c2ccc([N+](=O)[O-])c3no[n+]([O-])c23)CC1 ... class 1
6. Cc1cc(N=Nc2ccccc2C)ccc1N ... class 0
7. O=C1c2ccccc2C(=O)C(Cl)C1Cl (stereo unspecified) ... class 0
8. CC[C@](O)(C(=O)O)c1cc2n(c(=O)c1CO)Cc1cc3ccccc3nc1-2 ... class 1
9. CO[C@H](/C(C)=C/C=C/C(C)=C/c1coc(C)n1)[C@H](C)[C@H]1C[C@@H](O)[C@@]2(C)O[C@H]2/C=C/[C@@H](C)[C@@H]2C[C@@H](CC(=O)O2)C[C@H]2O[C@@H]2C(=O)O1 ... class 0
10. CCC1(O)CC(OC2CC(N(C)C)C(OC3CC4OC5CC(=O)C(C)OC5OC4C(C)O3)C(C)O2)c2c(cc3c(c2O)C(=O)c2c(O)ccc(O)c2C3=O)C1C(=O)OC (stereo unspecified) ... class 1
11. CC[C@@]1(O)C[C@H](OC2CC(N(C)C)C(OC3CC(O)C(OC4CCC(=O)C(C)O4)C(C)O3)C(C)O2)c2c(cc3c(c2O)C(=O)c2c(O)ccc(O)c2C3=O)[C@H]1C(=O)OC (stereo partly specified) ... class 1
12. C[C@]12CC[C@H](O)CC1=CC[C@@H]1[C@@H]2CC[C@]2(C)C(=O)CC[C@@H]12 ... class 0
13. Oc1cc[c]([Hg][Cl])cc1 ... class 0
14. CCC(=O)OC1CCn2c1nc1c2C(=O)C(C)=C(N2CC2)C1=O (stereo unspecified) ... class 1
15. Cc1ccc(C(=O)OC(C(=O)O)C(OC(=O)c2ccc(C)cc2)C(=O)O)cc1 (stereo unspecified) (tested in a mixture with another compound) ... class 0
16. C[C@H]1CCC/C=C/[C@@H]2C[C@H](O)C[C@H]2[C@H](O)/C=C/C(=O)O1 ... class 0
